- TEST_SUMMARY: Apparent solubility measurement in deionised water
- Format: physicochemical
- CONDITION: 37 °C, thermodynamic from solid
MEASUREMENT_TYPE: solubility at 24 h
Write the quantity with the unit trailing the number.

So, COc1cc(/C=C/C(=O)CC(=O)/C=C/c2ccc(O)c(OC)c2)ccc1O ? Its solubility at 24 h was 0.25 µg/mL
